biological target: T1, recombinant human CD63 extracellular loop 2 expressed with a C-terminal human Fc tag (human); experiment: SPR Biacore, mAb captured, 37C
T1 construct: also called hCD63 EC loop 2-hFc; human CD63 EC loop 2-Fc
T1 sequence (chain, as listed by the source limits assumed): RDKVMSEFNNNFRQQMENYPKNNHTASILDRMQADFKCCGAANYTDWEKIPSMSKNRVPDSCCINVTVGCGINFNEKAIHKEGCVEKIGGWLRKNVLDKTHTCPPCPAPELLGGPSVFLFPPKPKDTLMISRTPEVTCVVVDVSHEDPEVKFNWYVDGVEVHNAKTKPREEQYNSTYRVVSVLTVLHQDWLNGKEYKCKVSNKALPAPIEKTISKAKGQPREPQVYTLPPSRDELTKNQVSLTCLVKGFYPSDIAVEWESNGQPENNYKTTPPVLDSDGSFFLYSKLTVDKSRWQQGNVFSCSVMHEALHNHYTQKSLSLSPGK
Consider the cut-off 20 min. If the recorded t1/2 is strictly smaller, the label is 1.0; if not, the label is 0.0.

[[record]]
binder = "H2M12452N (antibody, V domains shown, also called H2aM12452N) VH: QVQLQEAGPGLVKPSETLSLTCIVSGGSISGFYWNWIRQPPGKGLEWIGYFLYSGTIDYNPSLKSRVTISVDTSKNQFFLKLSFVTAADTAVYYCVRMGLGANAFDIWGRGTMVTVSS VL: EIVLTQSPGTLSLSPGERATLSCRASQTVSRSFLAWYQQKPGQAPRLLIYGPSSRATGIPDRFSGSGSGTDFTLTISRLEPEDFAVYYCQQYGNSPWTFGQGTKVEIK"
discrete_label = 1.0

[[record]]
binder = "H1M12386N (antibody, V domains shown) VH: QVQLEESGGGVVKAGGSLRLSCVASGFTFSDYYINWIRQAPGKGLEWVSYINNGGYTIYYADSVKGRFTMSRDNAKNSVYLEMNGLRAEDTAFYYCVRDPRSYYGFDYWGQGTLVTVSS VL: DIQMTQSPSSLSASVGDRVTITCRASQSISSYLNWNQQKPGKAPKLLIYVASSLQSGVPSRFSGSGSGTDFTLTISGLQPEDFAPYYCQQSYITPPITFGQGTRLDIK"
discrete_label = 1.0

[[record]]
binder = "H2M12385N (antibody, V domains shown, also called H2bM12385N; H2bM12385) VH: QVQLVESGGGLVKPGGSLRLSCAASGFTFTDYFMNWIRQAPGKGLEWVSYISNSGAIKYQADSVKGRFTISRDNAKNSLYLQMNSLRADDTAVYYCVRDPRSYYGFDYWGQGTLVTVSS VL: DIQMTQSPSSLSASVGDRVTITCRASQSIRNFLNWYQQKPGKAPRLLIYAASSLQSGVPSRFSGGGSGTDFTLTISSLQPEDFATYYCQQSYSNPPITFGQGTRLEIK"
discrete_label = 1.0

[[record]]
binder = "H2M12387N (antibody, V domains shown, also called H2aM12387N) VH: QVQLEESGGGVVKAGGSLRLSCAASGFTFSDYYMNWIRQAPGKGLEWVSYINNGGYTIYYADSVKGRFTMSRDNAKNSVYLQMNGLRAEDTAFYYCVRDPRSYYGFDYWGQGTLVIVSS VL: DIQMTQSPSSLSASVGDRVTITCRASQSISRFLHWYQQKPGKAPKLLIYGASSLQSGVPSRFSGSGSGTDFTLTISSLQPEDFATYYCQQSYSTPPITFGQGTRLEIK"
discrete_label = 1.0

[[record]]
binder = "H2M12395N (antibody, V domains shown, also called H2aM12395N) VH: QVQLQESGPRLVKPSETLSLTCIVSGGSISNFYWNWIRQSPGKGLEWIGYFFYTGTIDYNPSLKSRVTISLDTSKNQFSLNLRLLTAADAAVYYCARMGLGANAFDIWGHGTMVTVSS VL: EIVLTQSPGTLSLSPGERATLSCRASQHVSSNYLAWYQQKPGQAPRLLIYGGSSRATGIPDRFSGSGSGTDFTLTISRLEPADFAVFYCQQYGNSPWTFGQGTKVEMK"
discrete_label = 1.0

[[record]]
binder = "H2M12450N (antibody, V domains shown, also called H2aM12450N; mAb12450) VH: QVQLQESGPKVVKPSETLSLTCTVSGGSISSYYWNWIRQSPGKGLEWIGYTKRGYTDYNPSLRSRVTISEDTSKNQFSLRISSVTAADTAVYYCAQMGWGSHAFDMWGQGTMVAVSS VL: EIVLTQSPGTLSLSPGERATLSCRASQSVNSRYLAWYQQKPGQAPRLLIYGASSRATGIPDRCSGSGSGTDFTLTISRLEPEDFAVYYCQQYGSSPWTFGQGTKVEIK"
discrete_label = 0.0


meta.source: patent US20210079109A1
